# subject_of_test: Gag-Pol polyprotein [588-1027]/[588-1147] (Human immunodeficiency virus 1, UniProt P04585)
# Construct: 588-1027; 588-1147
# procedure_text: HIV-1 RT Assay
# reported_conditions: pH 7.9
pIC50: −log10 of the molar value.

| structure_smiles_string | subject_of_test | pIC50 |
| --- | --- | --- |
| COC(=O)CCCCCc1cc(C)c(OC)c(C(=O)OC)c1 | Gag-Pol polyprotein [588-1027]/[588-1147] (Human immunodeficiency virus 1, UniProt P04585) | 5.76 |
| COC(=O)CCC/C=C(/c1cc(C)c(OC)c(C(=O)OC)c1)c1cc(Cl)c(OC)c(C(=O)OC)c1 | Gag-Pol polyprotein [588-1027]/[588-1147] (Human immunodeficiency virus 1, UniProt P04585) | 6.29 |
| COC(=O)CCCC#Cc1cc(C)c(OC)c(C(=O)OC)c1 | Gag-Pol polyprotein [588-1027]/[588-1147] (Human immunodeficiency virus 1, UniProt P04585) | 4.00 |
| COC(=O)CCCCC(=O)c1cc(C)c(OC)c(C(=O)OC)c1 | Gag-Pol polyprotein [588-1027]/[588-1147] (Human immunodeficiency virus 1, UniProt P04585) | 4.00 |
| COC(=O)CCC/C=C(/c1ccc(OC)c(OC)c1)c1cnccn1 | Gag-Pol polyprotein [588-1027]/[588-1147] (Human immunodeficiency virus 1, UniProt P04585) | 4.00 |
